- protocol: NCI Yeast Anticancer Drug Screen. Data for the rad50 strain (AID 155);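 also: 0% = growth of vehicle-only cultures of the same strain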
- measurement_context: S. cerevisiae rad50 strain growth inhibition; at 33.0 µM; active compounds read high
The panel holds about 79,000 compounds, 15% with a hit somewhere; the sample as a whole holds those more often.
compounds and their reported growth inhibition
Value expressed in %; do not type the unit.

Known growth inhibition results, listed for orientation:
compound_string: COc1ccc(Br)c(C(=O)Sc2nnnn2-c2cccc(Cl)c2)c1
measured_endpoint: growth inhibition
experimental_result: 42
--
compound_string: O=C(O)c1ccccc1NC(=S)c1ccccc1
measured_endpoint: growth inhibition
experimental_result: -11
--
compound_string: COc1cc(/C=C2\CCc3ccccc3C2=O)cc(OC)c1OC
measured_endpoint: growth inhibition
experimental_result: 26
--
compound_string: CN(C)c1ccc(C(C#N)=C(C#N)C#N)cc1
measured_endpoint: growth inhibition
experimental_result: 11
--
compound_string: COC(=O)c1ccc(NCC2=CC(=O)C=CC2=O)cc1O
measured_endpoint: growth inhibition
experimental_result: 95

QUERY: What measured growth inhibition goes with `[N-]=[N+]=NC1=C(c2ccccn2)C(=O)c2cccc3cccc1c23` ?
RESULT: 53

QUERY: Next record, please: `Fc1ccc(NC(=S)SCc2ccc3c(c2)OCO3)cc1F`
RESULT: 99

QUERY: Okay, and `Cc1ccc(S(=O)(=O)NCCSS(=O)(=O)c2ccc(C)cc2)cc1` ?
RESULT: 98

QUERY: Would you kindly repeat that for `O=C1c2ccccc2-c2nc3ccccc3nc21` ?
RESULT: 85

QUERY: Also `N#C/C(=C\c1cccc(OCc2ccccc2)c1)c1ccc([N+](=O)[O-])cc1` , if possible.
RESULT: -23

QUERY: Consider next the compound `Cc1ccc(NN(NC(=O)OC(C)C)C(=O)OC(C)C)cc1` in the same way.
RESULT: 8

QUERY: Repeat for the following compound: `CCOC(=O)c1cc([N+](=O)[O-])cc([N+](=O)[O-])c1Sc1ncnc2nc[nH]c12`
RESULT: 68

QUERY: Input `Cc1ccc(S(=O)(=O)Oc2cc(Cl)c(Cl)cc2Cl)cc1`
RESULT: 3
